- target_desc: T1, human EpCAM protein (human, UniProt P16422 24-265)
- T1 construct: biotinylated in the Octet assays; also called hu EpCAM; biotinylated human EpCAM protein
- T1 sequence (looked up): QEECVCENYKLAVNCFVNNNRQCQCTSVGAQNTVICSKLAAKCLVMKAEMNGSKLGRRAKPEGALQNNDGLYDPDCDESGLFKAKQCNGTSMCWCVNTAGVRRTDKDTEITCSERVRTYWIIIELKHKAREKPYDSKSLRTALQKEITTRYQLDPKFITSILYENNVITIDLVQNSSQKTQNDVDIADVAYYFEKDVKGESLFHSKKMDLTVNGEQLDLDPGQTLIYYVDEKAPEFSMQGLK
- test_name: colorimetric ELISA
readout_label: Human EpCAM/Control (ratio)

Llama anti-EpCAM single domain antibody EPL145 (VHH, E. coli periplasmic extract) VHH: QVQLQESGGGLVQAGGSLRLSCAASGFIFRAASMGWFRQSPGNERELVATVSSGGFTNYADSVKGRFTISRDNAKNTVYLQMNSLKPEDTAVYFCGATFVRSDGHHTIYGQGTQVTVSS ... 3
Llama anti-EpCAM single domain antibody EPL74 (VHH, E. coli periplasmic extract) VHH: QVQLQESGGGLVQAGGSLRLSCAASGSIFGINAMGWYRQAPGKQRESVAFITIGGNTNYLDSVKGRFTISRDNAKNTVYLQMNGLKPEDTAVYYCNTNPPLILTAGGLYWGQGTQVTVSS ... 10

P = Llama anti-EpCAM single domain antibody EPL13 (VHH, E. coli periplasmic extract) VHH: QVQLQESGGGLVQPGGSLRLSCAASGFAFGNHWMYWYRQAPGRGRELVASISSGGSTNYVDSVKGRFTISRDNARNTVYLQMYSLKPEDTAVYYCGTSDNWGQGTQVTVSS
Q = Llama anti-EpCAM single domain antibody EPL153 (VHH, E. coli periplasmic extract) VHH: QVQLQESGGGLVQPGGSLRLSCAASGFTFSDWAMSWVRQAPGKGLEWVSSIHYGDHTTHYADFVKGRFTISRDDAKNTLYLQMNSLKPEDTAVYYCEKGTTRGQGTQVTVSS
Q) P or Q : whose Human EpCAM/Control is greater? Selection: enter the item's label.
A) Q
